Tested on: HOSE2C
Assay: drug sensitivity score (DSS) from 5-point dose-response viability curve (DSS (area-under-curve based score)); higher = more sensitive (stronger growth inhibition or killing); extreme values may be limits of the assay
Conditions: exposure time: 72 h; concentration range: 5 concentrations over 10,000-fold range
Threshold rule: drug sensitivity score greater than or equal to 4 is y; below that, n.

>>> category_label("Cn1cncc1[C@@](N)(c1ccc(Cl)cc1)c1ccc2c(c1)c(-c1cccc(Cl)c1)cc(=O)n2C [Tipifarnib]")
"n"
>>> category_label("O=C(Nc1cc(Oc2cc(F)c(NC(=O)C3(C(=O)Nc4ccc(F)cc4)CC3)cc2F)ccn1)C1CC1 [Altiratinib]")
"n"
>>> category_label("COc1cc([C@@H]2c3cc4c(cc3[C@@H](O[C@@H]3O[C@@H]5CO[C@@H](c6cccs6)O[C@H]5[C@H](O)[C@H]3O)[C@H]3COC(=O)[C@H]23)OCO4)cc(OC)c1O [Teniposide]")
"n"
>>> category_label("CC(C)(C)c1nc(-c2cccc(NS(=O)(=O)c3c(F)cccc3F)c2F)c(-c2ccnc(N)n2)s1 [Dabrafenib]")
"n"
>>> category_label("CN(C)Cc1ccc(S(=O)(=O)n2ccc(/C=C/C(=O)NO)c2)cc1 [Resminostat]")
"y"
>>> category_label("Nc1nc(Cl)nc2c1ncn2[C@@H]1O[C@H](CO)[C@@H](O)[C@@H]1F [Clofarabine]")
"y"

###

Test system: Ovsaho
Test: drug sensitivity score (DSS) from 5-point dose-response viability curve (DSS (area-under-curve based score)); higher = more sensitive (stronger growth inhibition or killing); extreme values may be limits of the assay
Conditions: exposure time: 72 h; concentration range: 5 concentrations over 10,000-fold range
measured-parameter: drug sensitivity score

>>> measured_result("C[C@@H]1CCN(C(=O)CC#N)C[C@@H]1N(C)c1ncnc2[nH]ccc12")
0
>>> measured_result("Cc1sc2c(c1C)C(c1ccc(Cl)cc1)=N[C@@H](CC(=O)Nc1ccc(OCCOCCOCCOCCNc3cccc4c3C(=O)N(C3CCC(=O)NC3=O)C4=O)cc1)c1nnc(C)n1-2 (some centres undefined)")
10
>>> measured_result("Cc1cc(OCc2nnc(SC3CCCC3)n2-c2cccnc2)ccc1-c1ccc(S(C)(=O)=O)cc1")
6.9
>>> measured_result("C=CC(=O)Nc1cccc(Nc2nc(Nc3ccc(N4CCN(C(C)=O)CC4)cc3OC)ncc2C(F)(F)F)c1")
6.9

###

System: OV90
Test: drug sensitivity score (DSS) from 5-point dose-response viability curve (DSS (area-under-curve based score)); higher = more sensitive (stronger growth inhibition or killing); extreme values may be limits of the assay
Conditions: exposure time: 72 h; concentration range: 5 concentrations over 10,000-fold range
Threshold rule: drug sensitivity score greater than or equal to 0.6 is met; below that, not met.

>>> category_label("C#Cc1cccc(Nc2ncnc3cc(OCCOC)c(OCCOC)cc23)c1")
"met"
>>> category_label("C[C@H]1O[C@@H](O[C@H]2[C@@H](O)C[C@H](O[C@H]3[C@@H](O)C[C@H](O[C@H]4CC[C@@]5(C)[C@H](CC[C@@H]6[C@@H]5C[C@@H](O)[C@]5(C)[C@@H](C7=CC(=O)OC7)CC[C@]65O)C4)O[C@@H]3C)O[C@@H]2C)C[C@H](O)[C@@H]1O")
"met"
>>> category_label("C[C@@H](Nc1cc(F)cc(F)c1)c1cc(C(=O)N(C)C)cc2c(=O)cc(N3CCOCC3)oc12")
"not met"
>>> category_label("Cc1cccc(CC(=O)N2CCc3c2ccc(-c2cn(C)c4ncnc(N)c24)c3F)n1")
"not met"
>>> category_label("Cc1nc(=O)c2cc(CN(C)c3ccc(C(=O)N[C@@H](CCC(=O)O)C(=O)O)s3)ccc2[nH]1")
"met"
>>> category_label("Cc1sc2c(c1C)C(c1ccc(Cl)cc1)=N[C@@H](CC(=O)Nc1ccc(OCCOCCOCCOCCNc3cccc4c3C(=O)N(C3CCC(=O)NC3=O)C4=O)cc1)c1nnc(C)n1-2 (stereo partly specified)")
"met"
>>> category_label("Nc1nc(OCc2cc(Br)cs2)c2[nH]cnc2n1")
"not met"
>>> category_label("COc1cc2nccc(Oc3ccc(NC(=O)NC4CC4)c(Cl)c3)c2cc1C(N)=O")
"not met"
>>> category_label("CC(C)Cn1cnc2c(N)nc3ccccc3c21")
"not met"
>>> category_label("NCC(=O)Nc1ccc(-n2nc(C(F)(F)F)cc2-c2ccc3c(ccc4ccccc43)c2)cc1")
"not met"
>>> category_label("CC(=O)c1cc2c(o1)C(=O)c1ccccc1C2=O")
"met"
>>> category_label("Cc1nc(Nc2ncc(C(=O)Nc3c(C)cccc3Cl)s2)cc(N2CCN(CCO)CC2)n1")
"met"
>>> category_label("CN(C)C(=O)c1ccc(S(=O)(=O)c2ccc(NC(=O)[C@@](C)(O)C(F)(F)F)c(Cl)c2)cc1")
"not met"
>>> category_label("CNc1nc(Nc2cn(C(C)(C)C#N)nc2C)ncc1C(F)(F)F")
"not met"
>>> category_label("N#CCNC(=O)c1ccc(-c2ccnc(Nc3ccc(N4CCOCC4)cc3)n2)cc1")
"met"
>>> category_label("CC/C(=C(\\c1ccc(O)cc1)c1ccc(OCCN(C)C)cc1)c1ccccc1 [4-hydroxytamoxifen]")
"met"
>>> category_label("CNC(=O)c1ccc(N2C(=S)N(c3cnc(C#N)c(C(F)(F)F)c3)C(=O)C23CCC3)cc1F [Apalutamide]")
"not met"
>>> category_label("CO[C@@H](C)Cn1c(=O)n(C)c2cnc3ccc(-c4cncc(C(C)(C)O)c4)cc3c21")
"met"
>>> category_label("CC[C@H](NC(=O)[C@H](C)NC)C(=O)N1C[C@@H](O)C[C@H]1Cc1c(-c2[nH]c3cc(F)ccc3c2C[C@@H]2C[C@H](O)CN2C(=O)[C@H](CC)NC(=O)[C@H](C)NC)[nH]c2cc(F)ccc12")
"met"
>>> category_label("O=C(Nc1cc(Cl)cc2c1[nH]c1cnccc12)c1cccnc1")
"met"
>>> category_label("CC1CCC(n2c3cnccc3c3cnc(Nc4ccc5c(n4)CCN(C(=O)CO)C5)nc32)CC1 (stereo unspecified)")
"not met"
>>> category_label("CNC(=O)c1cc(COc2nnc(Nc3ccc(Cl)cc3)c3ccoc23)ccn1")
"not met"
>>> category_label("O=C(Nc1ccncc1)C(=O)c1cn(Cc2ccc(Cl)cc2)c2ccccc12")
"met"
>>> category_label("Nc1ncn([C@H]2C[C@H](O)[C@@H](CO)O2)c(=O)n1")
"not met"
>>> category_label("COCCNCc1ccc(-c2cc3nccc(Oc4ccc(NC(=O)C5(C(=O)Nc6ccc(F)cc6)CC5)cc4F)c3s2)nc1")
"met"
>>> category_label("CC[C@@H](C(=O)[C@@H](C)[C@@H](O)[C@H](C)[C@@H]1O[C@@H]([C@@H](CC)C(=O)O)CC[C@@H]1C)[C@H]1O[C@]2(C=C[C@@H](O)[C@]3(CC[C@@](C)([C@H]4CC[C@](O)(CC)[C@H](C)O4)O3)O2)[C@H](C)C[C@@H]1C")
"met"
>>> category_label("Cc1ccc(=O)n(-c2ccccc2)c1")
"not met"
>>> category_label("O=C(O)c1ccc(CN2CCC(CN[C@@H]3C[C@H]3c3ccccc3)CC2)cc1")
"not met"
>>> category_label("Cc1cc(F)c(C(=O)Nc2cccc(-c3nncn3C(C)C)n2)cc1-n1cnc(C2CC2)c1")
"not met"

###

System: Kuramochi
Test: drug sensitivity score (DSS) from 5-point dose-response viability curve (DSS (area-under-curve based score)); higher = more sensitive (stronger growth inhibition or killing); extreme values may be limits of the assay
Conditions: exposure time: 72 h; concentration range: 5 concentrations over 10,000-fold range
Recorded drug sensitivity score by entry
measured-parameter: drug sensitivity score

>>> measured_result("CC(C)(C)C[C@@H]1N[C@@H](C(=O)N[C@H]2CC[C@H](O)CC2)[C@H](c2cccc(Cl)c2F)[C@]12C(=O)Nc1cc(Cl)ccc12")
1.5
>>> measured_result("CN1CCc2c(c3ccccc3n2Cc2ccc(C(=O)NO)cc2)C1")
1.5
>>> measured_result("O=C(CCCCCCC(=O)Nc1ccccc1)NO")
4.7
>>> measured_result("C[C@]1(O)C[C@@H](c2nc(-c3ccc4ccc(-c5ccccc5)nc4c3)c3c(N)nccn32)C1")
0

###

Recorded drug sensitivity score by entry
Tested on: Ovsaho
Assay: drug sensitivity score (DSS) from 5-point dose-response viability curve (DSS (area-under-curve based score)); higher = more sensitive (stronger growth inhibition or killing); extreme values may be limits of the assay
Conditions: exposure time: 72 h; concentration range: 5 concentrations over 10,000-fold range
measured-parameter: drug sensitivity score

>>> measured_result("Nc1ccn([C@@H]2O[C@H](CO)[C@@H](O)C2(F)F)c(=O)n1")
3.3
>>> measured_result("CCn1c(-c2nonc2N)nc2c(C#CC(C)(C)O)ncc(OC[C@H]3CCCNC3)c21")
0.5
>>> measured_result("CCN(CC)Cc1ccc2cc(COC(=O)Nc3ccc(C(=O)NO)cc3)ccc2c1")
3.2
>>> measured_result("C#Cc1cccc(Nc2ncnc3cc4c(cc23)OCCOCCOCCO4)c1")
1.1
>>> measured_result("COc1cc(C(=O)O)ccc1NC(=O)[C@@H]1N[C@@H](CC(C)(C)C)[C@](C#N)(c2ccc(Cl)cc2F)[C@H]1c1cccc(Cl)c1F")
0
